Entry source: patent US20250082624A1

assayText: Phase 1b MAD plasma pharmacokinetics, non-compartmental analysis
Type: in vivo, human
conditionSummary: human, plasma, po, 10 mg, Table 10: Cohort A, 10 mg QD oral, Day 7; individual subjects; read-out: Tmax
assayMetric: Tmax

GET /values?readout=Tmax&item= CC1(Cc2ccccc2)COc2cc(C(=O)N3CCCCC3)ccc21 (stereo not shown) [NTRX-07]
30 min

====

assayText: Phase 1b MAD plasma pharmacokinetics, non-compartmental analysis
Format: in vivo, human
conditionSummary: human, plasma, po, 360 mg SDD, Table 30 (interim): Cohort C, 360 mg SDD (90 mg NTRX-07) QD oral, Day 7; mean ± S.D.; read-out: Vd/F
assayMetric: Vd/F (L)
Write down the numeric answer in L and omit the unit.

GET /values?readout=Vd/F&item= CC1(Cc2ccccc2)COc2cc(C(=O)N3CCCCC3)ccc21 (stereo not shown)
2270

====

assayText: Phase 1b MAD plasma pharmacokinetics, non-compartmental analysis
Format: in vivo, human
conditionSummary: human, plasma, po, 90 mg, Cohort D AD patients, 90 mg QD oral, Day 7; mean ± SD; read-out: Average of Vd/F
Experimental: Methods: All study procedures were approved by the IRB, and informed consent was obtained. […] Subjects were assessed for changes in vital signs, including maneuvers to induce lightheadedness, electrocardiograms, 24-hour electroencephalograms (EEG), and safety laboratory studies. […] Raw bioanalytical data were received from Nuvisan following analysis of plasma samples from each of four cohorts. PK parameters were calculated by noncompartmental analysis using standard equations. […]
assayMetric: Vd/F (L)
Write down the numeric answer in L and omit the unit.

GET /values?readout=Vd/F&item= CC1(Cc2ccccc2)COc2cc(C(=O)N3CCCCC3)ccc21 (stereo not shown) [NTRX-07]
384

====

assayText: Phase 1b MAD plasma pharmacokinetics, non-compartmental analysis
Type: in vivo, human
conditionSummary: human, plasma, po, 10 mg, Table 9: Cohort A, 10 mg QD oral, Day 1; mean ± S.D.; read-out: AUClast
Protocol: Methods: All study procedures were approved by the IRB, and informed consent was obtained. […] Subjects were assessed for changes in vital signs, including maneuvers to induce lightheadedness, electrocardiograms, 24-hour electroencephalograms (EEG), and safety laboratory studies. […] Raw bioanalytical data were received from Nuvisan following analysis of plasma samples from each of four cohorts. PK parameters were calculated by noncompartmental analysis using standard equations. […]
assayMetric: AUC(0-t)
# answer = value followed by unit

GET /values?readout=AUC(0-t)&item= CC1(Cc2ccccc2)COc2cc(C(=O)N3CCCCC3)ccc21 (stereo not shown)
78.8 ng·h/mL

====

assayText: Phase 1b MAD plasma pharmacokinetics, non-compartmental analysis
Type: in vivo, human
conditionSummary: human, plasma, po, 30 mg, Cohort B Fed, single 30 mg oral dose after high-fat meal; mean ± SD; read-out: Average of Cmax
assayMetric: Cmax (ng/mL)
Write down the numeric answer in ng/mL and omit the unit.

GET /values?readout=Cmax&item= CC1(Cc2ccccc2)COc2cc(C(=O)N3CCCCC3)ccc21 (stereo not shown) [NTRX-07]
60

====

assayText: Phase 1b MAD plasma pharmacokinetics, non-compartmental analysis
Assay type: in vivo, human
conditionSummary: human, plasma, po, 30 mg, Cohort B healthy, 30 mg QD oral, Day 7; mean ± SD; read-out: Average of AUC24 h
assayMetric: AUC(0-t) (ng·h/mL)
Write down the numeric answer in ng·h/mL and omit the unit.

GET /values?readout=AUC(0-t)&item= CC1(Cc2ccccc2)COc2cc(C(=O)N3CCCCC3)ccc21 (stereo not shown)
236
